# Test system: SF-295
# Protocol: NCI tumour cell line growth inhibition, 48 h
Active and inactive are the calls of the source. No stated cut-off is given here; in the data, active = GI50 up to about 1.1 µM and inactive = higher.
# reported GI50; entries follow

Given the molecule COC1/C(=C\C(C)=O)c2ccccc2N1C(C)=O (stereo unspecified) , what is its reported GI50?
> 100 µM (inactive)

Query O=c1cc(N2CCN(c3cc(=O)n4ccccc4n3)CC2)oc2ccccc12 next
> 76.7 µM (inactive)

Query COC(=O)C(C(=O)C(=O)Nc1ccc([N+](=O)[O-])cc1[N+](=O)[O-])c1nc2ccc(Cl)cc2nc1O (stereo unspecified) next
> 100 µM (inactive)

Query CCCCNC(=S)Nc1nc(C(=O)NNC(=S)Nc2ccccc2)cs1 next
> 100 µM (inactive)

Query C=C1C(=O)O[C@@H]2/C=C(\C)CC/C=C(\C)CC[C@@]12O next
10.9 µM (inactive)

Query CC(C#N)c1cn(S(=O)(=O)c2ccccc2)c2ccccc12 (stereo unspecified) next
34.4 µM (inactive)

* * *

# Tested on: OVCAR-5
# Protocol: NCI tumour cell line growth inhibition, 48 h
Calls of active or inactive are those of the source. No stated cut-off is given here; in the data, active = GI50 up to about 1.1 µM and inactive = higher.
Select the matching outcome among 1.0 for active, 0.0 for inactive

Illustrative cases are given below, each with its answer.
1) CCCC(=O)Nc1cc(/C=C/C(=O)N2CC(CCl)c3c2cc(O)c2[nH]cc(C)c32)n(C)c1 (stereo not given)
1.0
2) O=C1OC2CC=CC1C2 (stereo not given)
0.0
3) COC(=O)[C@@H]1CN(C(C)=O)C(=O)N1C(=O)OCc1ccccc1
0.0
4) CC(C)(CO)NC(=O)c1cccs1
0.0

API: the following record is the query input.
Please let me know the test result on file for COC(=O)C1=C([C@H]2COC(C)(C)O2)[C@H]2C[C@@H]1[C@@H]1OC(C)(C)O[C@@H]12 .
0.0

* * *

# reported GI50; entries follow
# System: RPMI-8226
# Protocol: NCI tumour cell line growth inhibition, 48 h
The source made the active and inactive calls. Cut-off read from the data, not from the text of the source: active = GI50 up to about 1.1 µM and inactive = higher.

1. Cc1cc(C)c(OC(=O)Nc2cccc3ccccc23)c(-c2ccccc2)c1
22.5 µM (inactive)
2. NC(=O)C1C(=O)Oc2cccnc21 (stereo not given)
> 100 µM (inactive)
3. COC(=O)C1(C)CCc2c(OC)ccc(OC)c2C1=O (stereo not given)
> 100 µM (inactive)
4. CSCCC(NCc1c(O)ccc2c(-c3ccccc3)cc(=O)oc12)C(=O)O (stereo not given)
> 100 µM (inactive)

Next:
Given the molecule CC(=O)c1sc(-c2nc(C)c(C(=O)/C=C\c3ccc(/C=C\C(=O)c4sc(-c5nc(C)c(C(C)=O)s5)nc4C)cc3)s2)nc1C , what is its reported GI50?
50.5 µM (inactive)

* * *

# Test system: HOP-92
# Protocol: NCI tumour cell line growth inhibition, 48 h
Calls of active or inactive are those of the source. Rule as the data show it: active = GI50 up to about 1.1 µM and inactive = higher.
Value type: GI50

Some compounds with known GI50 results, for comparison:
1) NC(=O)NC12CC3CC(CC(F)(C3)C1)C2
> 100 µM (inactive)
2) C/C=C(/C)C(=O)O[C@@H]1CCN2CC[C@H](COC(=O)/C(=C/C)CO)C12 (stereo partly specified)
58.2 µM (inactive)
3) COc1ccc(/C(Cl)=C(\C=O)c2cc(OC)c(OC)c(OC)c2)cc1OC
49 µM (inactive)

Given the compound CCOC(=O)C/C(=N\c1cc(C)on1)N(CC)CC.[O-][Cl+3]([O-])([O-])O , what is its reported GI50?
> 100 µM (inactive)

Query C=C(C)C(=O)OC1C[C@H](COC(C)=O)C2CC=C(C)C2C2OC(=O)C(=C)[C@H]12 (stereo partly specified) next
1.92 µM (inactive)

Query CCCOC(=O)C1CCC(=O)N1C(=O)C(Cl)Cl (stereo unspecified) next
> 100 µM (inactive)

Query CCc1cccc(C)c1NC(=O)CCc1nnc2s/c(=C\c3cccc4ccccc34)c(=O)n12 next
> 100 µM (inactive)

Query CCCCn1c2ccccc2c2ccc3c(c21)C(=O)C=CC3=O next
> 100 µM (inactive)

Query O=C(CSCC(=O)N/N=C\c1ccc(O)c(O)c1O)N/N=C\c1ccc(O)c(O)c1O next
31 µM (inactive)

Query COc1ccc2ccc([Se]c3ccc4ccc(OC)cc4c3)cc2c1 next
> 100 µM (inactive)

Query CCOC(=O)CN1CCS/C1=N/C#N next
> 60 µM (inactive)

* * *

# Tested on: SNB-75
# Protocol: NCI tumour cell line growth inhibition, 48 h
Calls of active or inactive are those of the source. No stated cut-off is given here; in the data, active = GI50 up to about 1.1 µM and inactive = higher.
Select the matching outcome among true = active, false = inactive

1) CN(C)c1nc(N)nc(CCl)n1
true
2) COc1cc2cc(C(=O)N3CC(CCl)c4ccc([N+](C)(C)Cc5ccc([N+](=O)[O-])cc5)cc43)[nH]c2c(OC)c1OC (stereo not drawn)
false
3) O=S(=O)(O)CS(=O)(=O)OCCCl
false
4) C#C[C@]1(O)[C@@H](CO)O[C@@H](n2ccc(N)nc2=O)[C@@H]1O
true
5) O=C1COc2cc3c(cc2N1)SCCC(=O)N3
false

Please let me know the test result on file for Cc1cc(C)c(OC(=O)Nc2cccc3ccccc23)c(-c2ccccc2)c1 .
false

Query O=C(CC1(O)C(=O)Nc2ccccc21)c1ccco1 (stereo not drawn) next
false

* * *

# Test system: SF-268
# Protocol: NCI tumour cell line growth inhibition, 48 h
Active and inactive are the calls of the source. Rule as the data show it: active = GI50 up to about 1.1 µM and inactive = higher.
# reported GI50; entries follow

Some compounds with known GI50 results, for comparison:
1) O=C1c2ccccc2C(=O)N1/N=C\c1ccc(Br)cc1
> 10 µM (inactive)
2) c1ccc(Nc2nn3c(CCCCCCCCc4nnc5sc(Nc6ccccc6)nn45)nnc3s2)cc1
43 µM (inactive)
3) CCOC(=O)C(NS(=O)(=O)c1ccccc1)(C(F)(F)F)P(=O)(OCC(C)C)OCC(C)C (configuration not stated)
> 100 µM (inactive)
4) O=C1C[C@@H]2[C@@H](CCC23CC3)N1
> 100 µM (inactive)

Given the compound COc1ccc2c(c1)OCC1Cc3cccc(OC)c3OC21 (configuration not stated) , what is its reported GI50?
> 100 µM (inactive)

Query Cc1ccccc1/C=N/C12CC3CC(CC(C3)C1)C2 next
> 100 µM (inactive)

Query NC1=NC(=O)C(CC(=O)Nc2ccc([N+](=O)[O-])cc2[N+](=O)[O-])S1 (configuration not stated) next
> 100 µM (inactive)

Query Cc1ccccc1SC(/C=C/NNC1=NN=C(c2ccccc2)C(c2ccccc2)N1)c1ccccc1 (configuration not stated) next
24.9 µM (inactive)

Query CC1(C)COC(c2cccc(C3=NC(C)(C)CO3)c2)=N1 next
> 100 µM (inactive)

* * *

# System: OVCAR-8
# Protocol: NCI tumour cell line growth inhibition, 48 h
Activity calls are given as the source filed them. Rule as the data show it: active = GI50 up to about 1.1 µM and inactive = higher.
Value type: GI50

1. O=C1C[C@@H]2[C@@H](CCC23CC3)N1
> 100 µM (inactive)

Given the molecule CCN(CC)CC(C)C(=O)/C=C/c1ccc(C)cc1 (centres undefined) , what is its reported GI50?
2.07 µM (inactive)

Query CC1=CC(O)C(O)C2(C)C1CC1OC(=O)C(O)C3C(C)C(O)C4(O)OCC13C42 (centres undefined) next
32.1 µM (inactive)

Query COc1cc2c(cc1O)NC(=O)[C@@H]1C[C@@H](O)CN1C2=O next
98.2 µM (inactive)

Query CC(=O)c1sc(-c2nc(C)c(C(=O)/C=C\c3ccc(/C=C\C(=O)c4sc(-c5nc(C)c(C(C)=O)s5)nc4C)cc3)s2)nc1C next
> 100 µM (inactive)

* * *

# System: A498
# Protocol: NCI tumour cell line growth inhibition, 48 h
Active and inactive are the calls of the source. No stated cut-off is given here; in the data, active = GI50 up to about 1.1 µM and inactive = higher.
Value type: GI50

Given the molecule CNc1ccc(C(=O)CC(O)CCC(C)C2OC(=O)CC(O)CC(=O)CC(O)CC(O)CC(O)CC(O)CC3(O)CC(O)C(C(=O)NCCN(C)C)C(CC(OC4OC(C)C(O)C(NC(=O)CN5CCN(C)CC5)C4O)\C=C/C=C\C=C/C=C/C=C/C=C\C=C/C2C)O3)cc1 (stereo not drawn) , what is its reported GI50?
2.56 µM (inactive)

Query C/C(=N\Nc1nc2ccccc2s1)c1cc(C)ncn1 next
9.93 µM (inactive)

Query Clc1ccc(CCNC2(c3cc4ccccc4s3)CCCCC2)cc1Cl next
19.1 µM (inactive)

Query c1ccc2/c3[nH]/c(c2c1)=N\c1ccc(cc1)-c1nc2ccc(cc2o1)/N=c1/[nH]/c(c2ccccc12)=N/c1ccc2nc(oc2c1)-c1ccc(cc1)\N=3 next
33.5 µM (inactive)

Query CCN(CC)CCCC(C)Nc1ccnc2cc(Cl)ccc12 (stereo not drawn) [CHLOROQUINE PHOSPHATE] next
24.3 µM (inactive)

* * *

# System: A498
# Protocol: NCI tumour cell line growth inhibition, 48 h
Active and inactive are the calls of the source. Cut-off read from the data, not from the text of the source: active = GI50 up to about 1.1 µM and inactive = higher.
Select the matching outcome among TRUE = active, FALSE = inactive

Illustrative cases are given below, each with its answer.
1) CC(=O)NC1C(OCc2ccccc2)OC(CO)C(O)C1OCC(=O)N1CCCC1C(=O)NC(CCC(=O)NCCCCCNc1c2ccccc2nc2cccc([N+](=O)[O-])c12)C(N)=O (stereo not given)
TRUE
2) CCOC(=O)C1=NN(c2ccc(C)cc2)C2(c3ccccc3)C=C(c3ccccc3)N(C)CCN12 (stereo not given)
FALSE
3) CS(=O)(=O)Nc1ccc(N2Cc3c[nH]c4ccc5nccc2c5c34)cc1
FALSE
4) COC(=O)[C@@H]1C=C[C@H](OC2OC(COC(C)=O)C(OC(C)=O)C(OC(C)=O)C2OC(C)=O)n2c(=O)c3ccccc3c(=O)n21 (stereo not given in full)
FALSE
5) CSc1cnc2ccccc2c1Sc1c[nH]c2ccccc2c1=O
FALSE
6) O=C(O)CNC(=O)c1ccc(-c2ccccc2)cc1
FALSE

Please let me know the test result on file for CN(C)/C=N/S(=O)(=O)c1nn2c(C=O)c(-c3ccc(Cl)cc3)nc2s1 .
FALSE

Query N#Cc1c(-c2ccc([N+](=O)[O-])cc2)cc(-c2ccc(Nc3ccnc4cc(C(F)(F)F)ccc34)cc2)[nH]c1=O next
FALSE

Query S=C=Nc1ccc(CSc2nc3ccccc3[nH]2)cc1 next
FALSE

Query O=C1Sc2ccc(Br)cc2C(=O)Sc2ccccc21 next
FALSE
